Hey, just so you know, these numbers are from paper PMC4785065.

Biological target: human topoisomerase IIα (Homo sapiens, UniProt P11388)
Sequence (P11388 whole entry): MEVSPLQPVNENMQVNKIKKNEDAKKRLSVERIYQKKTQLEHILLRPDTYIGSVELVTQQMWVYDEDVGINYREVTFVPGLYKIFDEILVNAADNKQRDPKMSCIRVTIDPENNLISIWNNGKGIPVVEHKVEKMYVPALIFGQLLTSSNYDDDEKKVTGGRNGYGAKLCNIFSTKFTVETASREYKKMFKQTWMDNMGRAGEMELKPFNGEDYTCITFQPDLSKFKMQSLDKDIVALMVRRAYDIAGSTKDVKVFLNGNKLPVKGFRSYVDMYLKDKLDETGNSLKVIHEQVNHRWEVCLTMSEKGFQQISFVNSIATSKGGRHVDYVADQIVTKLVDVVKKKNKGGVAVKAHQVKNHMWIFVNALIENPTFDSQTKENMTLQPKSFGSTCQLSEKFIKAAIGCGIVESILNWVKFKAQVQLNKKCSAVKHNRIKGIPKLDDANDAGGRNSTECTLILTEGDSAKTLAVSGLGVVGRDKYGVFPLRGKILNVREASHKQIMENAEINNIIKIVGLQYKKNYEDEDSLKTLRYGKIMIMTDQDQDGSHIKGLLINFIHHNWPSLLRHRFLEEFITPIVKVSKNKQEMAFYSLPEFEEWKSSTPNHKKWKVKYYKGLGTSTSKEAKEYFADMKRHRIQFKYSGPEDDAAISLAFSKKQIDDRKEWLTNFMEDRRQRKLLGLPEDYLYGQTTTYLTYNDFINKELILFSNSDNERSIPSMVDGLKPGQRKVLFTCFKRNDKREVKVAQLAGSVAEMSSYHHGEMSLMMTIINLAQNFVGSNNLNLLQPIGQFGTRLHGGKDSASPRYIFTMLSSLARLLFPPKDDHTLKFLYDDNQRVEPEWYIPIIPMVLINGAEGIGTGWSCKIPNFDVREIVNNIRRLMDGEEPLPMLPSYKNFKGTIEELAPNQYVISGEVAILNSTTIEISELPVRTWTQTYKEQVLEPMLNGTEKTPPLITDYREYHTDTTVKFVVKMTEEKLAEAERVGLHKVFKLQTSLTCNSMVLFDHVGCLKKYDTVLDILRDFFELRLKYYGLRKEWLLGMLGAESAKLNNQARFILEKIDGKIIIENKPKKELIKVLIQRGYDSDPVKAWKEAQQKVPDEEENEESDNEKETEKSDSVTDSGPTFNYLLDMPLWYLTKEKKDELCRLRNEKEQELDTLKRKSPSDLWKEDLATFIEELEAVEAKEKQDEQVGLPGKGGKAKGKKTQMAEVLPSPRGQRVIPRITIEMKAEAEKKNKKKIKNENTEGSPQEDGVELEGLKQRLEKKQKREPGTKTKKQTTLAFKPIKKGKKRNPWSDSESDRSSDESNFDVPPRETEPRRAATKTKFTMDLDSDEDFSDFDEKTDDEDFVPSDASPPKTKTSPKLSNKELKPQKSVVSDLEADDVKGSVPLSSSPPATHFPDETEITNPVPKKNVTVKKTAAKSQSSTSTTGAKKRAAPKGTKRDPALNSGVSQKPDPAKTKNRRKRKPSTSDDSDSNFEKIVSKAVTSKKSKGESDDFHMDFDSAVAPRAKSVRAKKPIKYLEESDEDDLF
assay endpoint: IC50

- Cc1c2ccncc2c(C)c2c1[nH]c1ccccc12 [ET, 5,11-dimethyl-6H-pyrido[4,3-b]carbazole]: > 200 µM
